Reference source: PubChem BioAssay AID588487

Study system: UniProtKB Q9UM07
Assay overview: PAD1-4 inhibition by competitive ABPP, late-stage follow-up, orthogonal assay for PAD4 inhibitor project, biochemical, fluorescence, gel-based ABPP, HTS hits (AID 588487)
Condition parameters: recombinant PAD1-4, gel-based ABPP, RFA probe fluorescence; PAD4; at 10 µM
The source made the active and inactive calls.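 Rule for the calls: active = inhibition of at least 50% against any of four protein arginine deiminase enzymes; inactive = the rest.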
Your reply should match one of these outcome classes. 1 (active), -1 (inactive)

1) O=c1cc(-c2ccc(Cl)c(Cl)c2)[nH][nH]1    -1
2) COc1cc(NC2c3ccccc3C(=O)N2Cc2ccccc2Cl)cc(OC)c1 (stereo not drawn)    -1
3) O=c1cc(-c2cccc([N+](=O)[O-])c2)[nH][nH]1    -1
4) CCN(Cc1ccc2c(c1)OCCO2)C(=O)CSc1nc(C)nc2sc(C)c(C)c12    -1

Asked: Outcome? O=C(NC1CCCCC1)C(c1cccs1)N(CCCN1CCOCC1)C(=O)c1ccc(-c2ccccc2)[nH]1 (stereo not drawn)
Given back: 1

Asked: Outcome? Cc1ccc(-c2nc3sc(C#N)c(N)n3c(=O)c2C#N)cc1
Given back: -1

Asked: Outcome? S=C(NCc1ccco1)Nc1cccc(Cl)c1
Given back: -1

Asked: Outcome? COc1ccc(-c2noc3c2-c2nc(-c4ccc(Br)cc4)sc2CC3)cc1
Given back: -1

---

Study system: Protein-arginine deiminase type-3 (Homo sapiens) (UniProt Q9ULW8)
Sequence (Q9ULW8 whole entry, looked up): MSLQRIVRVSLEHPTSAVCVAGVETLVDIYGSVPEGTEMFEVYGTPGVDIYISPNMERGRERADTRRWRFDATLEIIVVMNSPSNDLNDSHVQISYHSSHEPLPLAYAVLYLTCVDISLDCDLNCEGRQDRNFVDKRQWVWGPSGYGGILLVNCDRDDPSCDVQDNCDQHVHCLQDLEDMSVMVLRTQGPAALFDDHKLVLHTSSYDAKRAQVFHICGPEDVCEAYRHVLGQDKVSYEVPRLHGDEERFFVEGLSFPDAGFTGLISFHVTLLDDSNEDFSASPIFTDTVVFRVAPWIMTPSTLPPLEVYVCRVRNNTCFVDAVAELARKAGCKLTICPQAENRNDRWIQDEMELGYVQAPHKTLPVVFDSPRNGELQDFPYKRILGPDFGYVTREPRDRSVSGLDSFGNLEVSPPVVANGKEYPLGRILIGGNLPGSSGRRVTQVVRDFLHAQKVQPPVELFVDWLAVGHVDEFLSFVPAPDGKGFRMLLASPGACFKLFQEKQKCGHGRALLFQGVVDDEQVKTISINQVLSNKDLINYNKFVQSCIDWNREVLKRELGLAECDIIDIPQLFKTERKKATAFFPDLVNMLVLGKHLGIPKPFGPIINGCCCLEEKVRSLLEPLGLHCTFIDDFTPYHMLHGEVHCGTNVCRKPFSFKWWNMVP
Assay overview: PAD1-4 inhibition by competitive ABPP, late-stage follow-up, orthogonal assay for PAD4 inhibitor project, biochemical, fluorescence, gel-based ABPP, HTS hits (AID 588487)
Condition parameters: recombinant PAD1-4, gel-based ABPP, RFA probe fluorescence; PAD3; at 10 µM; active compounds read high
Threshold rule: inhibition greater than or equal to -30% is Y; below that, N.

Example cases with answers are listed next.
1. c1ccc(CCn2c3ccccc3c3nnc(SCc4ccc5nonc5c4)nc32)cc1    Y
2. CN(C)CCCNc1cn[nH]c(=O)c1Cl    N
3. Cc1nn(-c2cccc(Cl)c2)c2c1C(c1cccnc1)C(C#N)=C(N)O2 (stereo unspecified)    N

Asked: Identify whether the reported inhibition of the following molecule is -30% or greater: O=C(O)CCC(=O)Nc1ccc(SSc2ccc(NC(=O)CCC(=O)O)cc2)cc1
Given back: Y

Asked: Identify whether the reported inhibition of the following molecule is -30% or greater: Cc1cc(C)c(C)c(S(=O)(=O)N2CCC(C(=O)N3CCCC3)CC2)c1C
Given back: Y

Asked: Identify whether the reported inhibition of the following molecule is -30% or greater: CCNC(=S)NNC(=O)c1csc(C)c1
Given back: Y

---

Study system: Protein-arginine deiminase type-4 (Homo sapiens) (UniProt Q9UM07)
Sequence (Q9UM07 whole entry, looked up): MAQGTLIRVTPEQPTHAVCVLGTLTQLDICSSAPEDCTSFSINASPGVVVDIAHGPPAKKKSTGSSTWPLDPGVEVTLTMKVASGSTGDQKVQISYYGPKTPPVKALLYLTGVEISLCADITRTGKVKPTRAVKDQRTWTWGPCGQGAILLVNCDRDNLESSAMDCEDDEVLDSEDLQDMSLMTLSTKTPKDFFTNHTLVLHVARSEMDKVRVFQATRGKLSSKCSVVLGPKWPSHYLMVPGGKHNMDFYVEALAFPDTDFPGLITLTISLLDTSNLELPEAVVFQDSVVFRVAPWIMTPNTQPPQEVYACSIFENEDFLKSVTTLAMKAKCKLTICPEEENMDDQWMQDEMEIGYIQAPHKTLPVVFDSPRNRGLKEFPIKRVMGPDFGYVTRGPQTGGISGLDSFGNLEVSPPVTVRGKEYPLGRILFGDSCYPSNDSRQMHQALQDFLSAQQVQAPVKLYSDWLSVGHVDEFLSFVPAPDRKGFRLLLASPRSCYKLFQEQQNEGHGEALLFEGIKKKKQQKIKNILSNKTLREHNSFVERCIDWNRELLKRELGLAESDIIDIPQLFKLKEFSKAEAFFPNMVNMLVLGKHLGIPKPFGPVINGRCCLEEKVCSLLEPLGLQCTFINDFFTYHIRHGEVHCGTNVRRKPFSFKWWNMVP
Assay overview: PAD1-4 inhibition by competitive ABPP, late-stage follow-up, orthogonal assay for PAD4 inhibitor project, biochemical, fluorescence, gel-based ABPP, HTS hits (AID 588487)
Condition parameters: recombinant PAD1-4, gel-based ABPP, RFA probe fluorescence; PAD4; at 10 µM; active compounds read high
Threshold rule: inhibition greater than or equal to 30% is 1.0; below that, 0.0.

Example cases with answers are listed next.
1) CC(NC(=O)Nc1ccc(O)cc1)(C(F)(F)F)C(F)(F)F    1.0
2) Cc1cc2ncn(-c3ncccc3[N+](=O)[O-])c2cc1C    0.0
3) CN(C)CCN(Cc1ccccc1)c1ccccn1    1.0
4) CCNC(=S)NNC(=O)c1csc(C)c1    0.0
5) O=C(O)CCC(=O)c1ccc(-c2ccccc2)cc1    0.0

Asked: Identify whether the reported inhibition of the following molecule is 30% or greater: Cc1nn(-c2cccc(Cl)c2)c2c1C(c1cccnc1)C(C#N)=C(N)O2 (configuration not stated)
Given back: 1.0

Asked: Identify whether the reported inhibition of the following molecule is 30% or greater: Cc1c(C(=O)N2CCCCC2)c(S(=O)(=O)N2CCN(c3ccc(Cl)cc3)CC2)c(C)n1C
Given back: 1.0

Asked: Identify whether the reported inhibition of the following molecule is 30% or greater: Cc1c(NC(=O)CSc2nccn2C)c(=O)n(-c2ccccc2)n1C
Given back: 1.0

Asked: Identify whether the reported inhibition of the following molecule is 30% or greater: N#CCCN(C(=O)Cn1nc(C(=O)O)c2ccccc2c1=O)c1ccccc1
Given back: 0.0

Asked: Identify whether the reported inhibition of the following molecule is 30% or greater: CCOc1ccccc1C(=O)NCC(=O)NCCCc1ccccc1
Given back: 1.0

Asked: Identify whether the reported inhibition of the following molecule is 30% or greater: Cc1nonc1OC(C)CNc1ccc([N+](=O)[O-])cc1 (configuration not stated)
Given back: 0.0

Asked: Identify whether the reported inhibition of the following molecule is 30% or greater: Cc1ccc(C2CC(=O)Oc3cc(O)ccc32)cc1 (configuration not stated)
Given back: 0.0
